assay: Cytotoxicity against human CEM cells; type: cell-based; details: CEM cells (CCRF-CEM), read-out: TC50 (the source's name)
Measured Metric: log10(CC50) (log10 of the value in µM)
# values: log10(CC50), units µM

CCN(CC)c1nc(C)c([N+](=O)[O-])c(NCCNC(=S)Nc2ccc(C)c(Cl)c2)n1 : 1.65
CCN(CC)c1nc(C)cc(NCCNC(=S)Nc2cccc(Br)c2)n1 : 0.93

Q: Which log10(CC50) value belongs to COc1ccc(NC(=S)Nc2ccc(S(=O)(=O)Nc3cc(C)on3)cc2)cc1 ?
Ans: 1.62

Q: I'd like to know its log10(CC50). The compound in question is Cc1cc(NS(=O)(=O)c2ccc(NC(=S)Nc3ccccc3)cc2)no1
Ans: 1.70

Q: Which log10(CC50) is listed for O=C1OCc2ccc(NC(=S)Nc3cccc(F)c3)cc21 ?
Ans: 1.78

Q: Can you share its log10(CC50)? I mean this compound: Cc1ccc(NC(=S)Nc2ccc3c(c2)C(=O)OC3)cc1Cl
Ans: 1.27

Q: Need log10(CC50) of O=S(=O)(Nc1nccs1)c1ccc(NC(=S)Nc2ccc(Cl)cc2)cc1 , thanks.
Ans: 1.28

Q: Entry under review: O=C1OCc2ccc(NC(=S)Nc3cccc(Cl)c3)cc21 . Reported log10(CC50)?
Ans: 1.93
